details: 323.15 K; 3000 kPa; Liquid
Would you mind telling me the reported mass density of each entry?
Give a bare numeral; the unit kg/m3 is implied.

Reported mass density, compound CCCCCCCC[n+]1ccn(C)c1.F[P-](F)(F)(F)(F)F [1-octyl-3-methylimidazolium hexafluorophosphate] : ____
1219.4

Reported mass density, compound CCCCCCn1cc[n+](C)c1.F[P-](F)(F)(F)(F)F [1-hexyl-3-methylimidazolium hexafluorophosphate] : ____
1274.5

Reported mass density, compound CCCCn1cc[n+](C)c1.F[B-](F)(F)F [1-butyl-3-methylimidazolium tetrafluoroborate] : ____
1184.5

Reported mass density, compound CCCCn1cc[n+](C)c1C.F[P-](F)(F)(F)(F)F [1-butyl-2,3-dimethylimidazolium hexafluorophosphate] : ____
1332.5

Reported mass density, compound CCCCn1cc[n+](C)c1.O=S(=O)([O-])C(F)(F)F [1-butyl-3-methylimidazolium trifluoromethanesulfonate] : ____
1280.7

Reported mass density, compound CCCCCCCC[n+]1ccn(C)c1.F[B-](F)(F)F [1-methyl-3-octylimidazolium tetrafluoroborate] : ____
1087

====

Would you mind telling me the reported mass density of each entry?
details: 393.15 K; 100 kPa; Liquid
Give a bare numeral; the unit kg/m3 is implied.

Reported mass density, compound CCCCCCCC[n+]1ccn(C)c1.F[B-](F)(F)F [1-methyl-3-octylimidazolium tetrafluoroborate] : ____
1040.9

Reported mass density, compound CCCCn1cc[n+](C)c1.O=S(=O)([O-])C(F)(F)F [1-butyl-3-methylimidazolium trifluoromethanesulfonate] : ____
1225.3

Reported mass density, compound CCCCCCn1cc[n+](C)c1.F[P-](F)(F)(F)(F)F [1-hexyl-3-methylimidazolium hexafluorophosphate] : ____
1219.4

Reported mass density, compound CCCCCCCC[n+]1ccn(C)c1.F[P-](F)(F)(F)(F)F [1-octyl-3-methylimidazolium hexafluorophosphate] : ____
1166

Reported mass density, compound CCCCn1cc[n+](C)c1.F[B-](F)(F)F [1-butyl-3-methylimidazolium tetrafluoroborate] : ____
1136.1

Reported mass density, compound CCCCn1cc[n+](C)c1C.F[P-](F)(F)(F)(F)F [1-butyl-2,3-dimethylimidazolium hexafluorophosphate] : ____
1276.1

====

Would you mind telling me the reported mass density of each entry?
settings: 293.15 K; 4000 kPa; Liquid
Give a bare numeral; the unit kg/m3 is implied.

Reported mass density, molecule CCCCCCCC[n+]1ccn(C)c1.F[B-](F)(F)F [1-methyl-3-octylimidazolium tetrafluoroborate] : ____
1110.5

Reported mass density, molecule CCCCCCn1cc[n+](C)c1.F[P-](F)(F)(F)(F)F [1-hexyl-3-methylimidazolium hexafluorophosphate] : ____
1301.9

Reported mass density, molecule CCCCn1cc[n+](C)c1.F[B-](F)(F)F [1-butyl-3-methylimidazolium tetrafluoroborate] : ____
1208.7

Reported mass density, molecule CCCCn1cc[n+](C)c1.O=S(=O)([O-])C(F)(F)F [1-butyl-3-methylimidazolium trifluoromethanesulfonate] : ____
1308.2

Reported mass density, molecule CCCCCCCC[n+]1ccn(C)c1.F[P-](F)(F)(F)(F)F [1-octyl-3-methylimidazolium hexafluorophosphate] : ____
1244.6

====

Would you mind telling me the reported mass density of each entry?
details: 363.15 K; 3000 kPa; Liquid
Give a bare numeral; the unit kg/m3 is implied.

Reported mass density, compound CCCCCCCC[n+]1ccn(C)c1.F[P-](F)(F)(F)(F)F [1-octyl-3-methylimidazolium hexafluorophosphate] : ____
1188.3

Reported mass density, compound CCCCn1cc[n+](C)c1.O=S(=O)([O-])C(F)(F)F [1-butyl-3-methylimidazolium trifluoromethanesulfonate] : ____
1249

Reported mass density, compound CCCCn1cc[n+](C)c1C.F[P-](F)(F)(F)(F)F [1-butyl-2,3-dimethylimidazolium hexafluorophosphate] : ____
1299.4

Reported mass density, compound CCCCCCCC[n+]1ccn(C)c1.F[B-](F)(F)F [1-methyl-3-octylimidazolium tetrafluoroborate] : ____
1060.4

Reported mass density, compound CCCCCCn1cc[n+](C)c1.F[P-](F)(F)(F)(F)F [1-hexyl-3-methylimidazolium hexafluorophosphate] : ____
1242.6

Reported mass density, compound CCCCn1cc[n+](C)c1.F[B-](F)(F)F [1-butyl-3-methylimidazolium tetrafluoroborate] : ____
1156.4

====

settings: 303.15 K; 10000 kPa; Liquid
Measured Parameter: mass density (kg/m3)
Give a bare numeral; the unit kg/m3 is implied.

Reported mass density, compound CCCCn1cc[n+](C)c1.F[B-](F)(F)F [1-butyl-3-methylimidazolium tetrafluoroborate] : ____
1203.5

Reported mass density, compound CCCCn1cc[n+](C)c1.O=S(=O)([O-])C(F)(F)F [1-butyl-3-methylimidazolium trifluoromethanesulfonate] : ____
1302.3

Reported mass density, compound CCCCCCCC[n+]1ccn(C)c1.F[B-](F)(F)F [1-methyl-3-octylimidazolium tetrafluoroborate] : ____
1105.4

Reported mass density, compound CCCCCCn1cc[n+](C)c1.F[P-](F)(F)(F)(F)F [1-hexyl-3-methylimidazolium hexafluorophosphate] : ____
1295.8

Reported mass density, compound CCCCCCCC[n+]1ccn(C)c1.F[P-](F)(F)(F)(F)F [1-octyl-3-methylimidazolium hexafluorophosphate] : ____
1239.5

====

settings: 353.15 K; 2000 kPa; Liquid
Numbers after ± are expanded uncertainties.
Measured Parameter: mass density
Give the number first and the unit second.

Reported mass density, molecule CCCCn1cc[n+](C)c1.F[B-](F)(F)F [1-butyl-3-methylimidazolium tetrafluoroborate] : ____
1162.4 ± 2.4 kg/m3

Reported mass density, molecule CCCCCCCC[n+]1ccn(C)c1.F[P-](F)(F)(F)(F)F [1-octyl-3-methylimidazolium hexafluorophosphate] : ____
1195 ± 2.6 kg/m3

Reported mass density, molecule CCCCCCn1cc[n+](C)c1.F[P-](F)(F)(F)(F)F [1-hexyl-3-methylimidazolium hexafluorophosphate] : ____
1249.2 ± 3 kg/m3

Reported mass density, molecule CCCCn1cc[n+](C)c1.O=S(=O)([O-])C(F)(F)F [1-butyl-3-methylimidazolium trifluoromethanesulfonate] : ____
1255.3 ± 1.5 kg/m3

Reported mass density, molecule CCCCn1cc[n+](C)c1C.F[P-](F)(F)(F)(F)F [1-butyl-2,3-dimethylimidazolium hexafluorophosphate] : ____
1306.6 ± 3.5 kg/m3

Reported mass density, molecule CCCCCCCC[n+]1ccn(C)c1.F[B-](F)(F)F [1-methyl-3-octylimidazolium tetrafluoroborate] : ____
1065.8 ± 0.9 kg/m3

====

conditions: 353.15 K; 1000 kPa; Liquid
Would you mind telling me the reported mass density of each entry?
Give a bare numeral; the unit kg/m3 is implied.

Reported mass density, compound CCCCn1cc[n+](C)c1.O=S(=O)([O-])C(F)(F)F [1-butyl-3-methylimidazolium trifluoromethanesulfonate] : ____
1254.7

Reported mass density, compound CCCCCCCC[n+]1ccn(C)c1.F[B-](F)(F)F [1-methyl-3-octylimidazolium tetrafluoroborate] : ____
1065.2

Reported mass density, compound CCCCCCCC[n+]1ccn(C)c1.F[P-](F)(F)(F)(F)F [1-octyl-3-methylimidazolium hexafluorophosphate] : ____
1194.3

Reported mass density, compound CCCCCCn1cc[n+](C)c1.F[P-](F)(F)(F)(F)F [1-hexyl-3-methylimidazolium hexafluorophosphate] : ____
1248.6

Reported mass density, compound CCCCn1cc[n+](C)c1C.F[P-](F)(F)(F)(F)F [1-butyl-2,3-dimethylimidazolium hexafluorophosphate] : ____
1306

Reported mass density, compound CCCCn1cc[n+](C)c1.F[B-](F)(F)F [1-butyl-3-methylimidazolium tetrafluoroborate] : ____
1161.8

====

Would you mind telling me the reported mass density of each entry?
conditions: 293.15 K; 10000 kPa; Liquid
Give a bare numeral; the unit kg/m3 is implied.

Reported mass density, compound CCCCn1cc[n+](C)c1.O=S(=O)([O-])C(F)(F)F [1-butyl-3-methylimidazolium trifluoromethanesulfonate] : ____
1311.5

Reported mass density, compound CCCCCCn1cc[n+](C)c1.F[P-](F)(F)(F)(F)F [1-hexyl-3-methylimidazolium hexafluorophosphate] : ____
1304.9

Reported mass density, compound CCCCn1cc[n+](C)c1.F[B-](F)(F)F [1-butyl-3-methylimidazolium tetrafluoroborate] : ____
1211.3

Reported mass density, compound CCCCCCCC[n+]1ccn(C)c1.F[B-](F)(F)F [1-methyl-3-octylimidazolium tetrafluoroborate] : ____
1113.1

Reported mass density, compound CCCCCCCC[n+]1ccn(C)c1.F[P-](F)(F)(F)(F)F [1-octyl-3-methylimidazolium hexafluorophosphate] : ____
1247.8

====

conditions: 373.15 K; 3000 kPa; Liquid
Measured Parameter: mass density (kg/m3)
Give a bare numeral; the unit kg/m3 is implied.

Reported mass density, compound CCCCn1cc[n+](C)c1.O=S(=O)([O-])C(F)(F)F [1-butyl-3-methylimidazolium trifluoromethanesulfonate] : ____
1241.8

Reported mass density, compound CCCCn1cc[n+](C)c1.F[B-](F)(F)F [1-butyl-3-methylimidazolium tetrafluoroborate] : ____
1149.9

Reported mass density, compound CCCCCCn1cc[n+](C)c1.F[P-](F)(F)(F)(F)F [1-hexyl-3-methylimidazolium hexafluorophosphate] : ____
1235.6

Reported mass density, compound CCCCn1cc[n+](C)c1C.F[P-](F)(F)(F)(F)F [1-butyl-2,3-dimethylimidazolium hexafluorophosphate] : ____
1292.5

Reported mass density, compound CCCCCCCC[n+]1ccn(C)c1.F[P-](F)(F)(F)(F)F [1-octyl-3-methylimidazolium hexafluorophosphate] : ____
1181.3

Reported mass density, compound CCCCCCCC[n+]1ccn(C)c1.F[B-](F)(F)F [1-methyl-3-octylimidazolium tetrafluoroborate] : ____
1054.3

Taken from the NIST ThermoML archive (doi:10.1021/je060247x).
